Biological target: MLKL (Homo sapiens)
Assay: MLKL degradation assay in HepG2 cell line (western blot)
Assay type: cell-based
Design: endogenous in cells; host or cells: HepG2 or HaCaT
Details: compound 10 μM; cell line not given
Protocol: MLKL degradation ability was evaluated in the following method. […] For protein preparation after incubation, cells were washed with 1×TBST, and 60 μL of RIPA lysis buffer containing Halt™ Protease and Phosphatase Inhibitor Cocktail was dispensed into each well. […] For protein quantification, after dispensing sample and BCA (0-4 mg/ml) in a 96 well plate, 100 μL of BCA was dispensed and reacted in a 37° C. incubator for 30 minutes. […]
readoutName: Degradation assay (Degradation %) 10 μM

Nc1ncc(-c2cnn(C3CCN(CCC4CCN(C(=O)CCc5ccc6c(c5)C(=O)N(C5CCC(=O)NC5=O)C6=O)CC4)CC3)c2)nc1C(=O)O[C@@H](C(=O)Nc1ccc(F)cc1)c1ccccc1 (stereo partly shown) [TDH-377] = 82.82
Nc1ncc(-c2cnn(C3CCN(C4CC5(CCN(CC6CCN(C(=O)c7ccc8c(N9CCC(=O)NC9=O)coc8c7)CC6)CC5)C4)CC3)c2)nc1C(=O)O[C@@H](C(=O)Nc1ccc(F)cc1)c1ccccc1 [TDH-553] = 91.57

I. Nc1ncc(-c2cnn(C3CCN(CC4CCN(C(=O)Cc5cccc(NC6=CC(=O)N(C7CCC(=O)NC7=O)C6=O)c5)CC4)CC3)c2)nc1C(=O)O[C@@H](C(=O)Nc1ccc(F)cc1)c1ccccc1 (stereo partly shown) [TDH-516]
II. Nc1ncc(-c2cnn(C3CCN(CCCN4CCN(c5ccc6c(c5)C(=O)N(C5CCC(=O)NC5=O)C6=O)CC4)CC3)c2)nc1C(=O)OC(C(=O)Nc1ccc(F)cc1)c1ccccc1 (stereo not shown) [TDH-246]
Decide: I or II , by lowest recorded Degradation assay (Degradation %) 10 μM. Answer = label.
II

###

Target: MLKL (Homo sapiens, UniProt Q8NB16)
Sequence (Q8NB16 1-471): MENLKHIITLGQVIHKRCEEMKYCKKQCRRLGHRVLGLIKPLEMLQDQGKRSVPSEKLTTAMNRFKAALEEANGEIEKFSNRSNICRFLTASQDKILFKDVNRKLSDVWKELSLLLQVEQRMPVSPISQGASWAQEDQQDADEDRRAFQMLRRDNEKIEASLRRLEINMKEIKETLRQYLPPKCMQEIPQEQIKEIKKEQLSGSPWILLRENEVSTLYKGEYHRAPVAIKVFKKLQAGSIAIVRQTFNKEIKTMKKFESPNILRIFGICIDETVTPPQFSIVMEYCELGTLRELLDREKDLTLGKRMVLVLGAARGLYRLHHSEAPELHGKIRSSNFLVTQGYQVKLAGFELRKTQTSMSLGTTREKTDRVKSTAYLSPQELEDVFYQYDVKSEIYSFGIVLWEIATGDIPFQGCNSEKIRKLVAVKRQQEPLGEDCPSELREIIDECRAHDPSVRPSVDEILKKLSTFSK
pKd: −log10 of the molar value. Counter-ions that a name gives are not always drawn.
readoutName: pKd

Example entries begin here.
Nc1ncc(C2=CCNCC2)cc1C(=O)O[C@@H](C(=O)Nc1ccc(F)cc1)c1ccccc1 [TDH-070, hydrochloride] = 6.96
CN(C)c1ccc(NC(=O)[C@H](OC(=O)c2nc(-c3cnn(C4CCNCC4)c3)cnc2N)c2ccccc2)cc1 [TDH-470, hydrochloride] = 8.42

1. Nc1ncc(-c2cnn(C3CCN(C(=O)C4CCN(C(=O)C5CCN(c6ccc7nnn(C8CCC(=O)NC8=O)c(=O)c7c6)CC5)CC4)CC3)c2)nc1C(=O)O[C@@H](C(=O)Nc1ccc(F)cc1)c1ccccc1 (stereo partly shown) [TDH-410]
2. COc1ccc(C(=O)N2CCC(CCN3CCC(n4cc(-c5cnc(N)c(C(=O)O[C@@H](C(=O)Nc6ccc(F)cc6)c6ccccc6)n5)cn4)CC3)CC2)cc1N1CCC(=O)NC1=O [TDH-446]
Decide: 1 or 2 , by lowest recorded pKd. Answer = label.
1
(1: 8.96, 2: 9.66)
